test system: Klebsiella aerogenes DSM 30053; test: growth (OD595) fold change vs plate DMSO controls (fold change (ratio)); higher = more growth; conditions: 20 µM; incubation time: 27 h, anaerobic, 37 °C
Counter-ions that a name gives are not always drawn.
measure: growth

CC(C)N1C(=O)c2ccccc2NS1(=O)=O; 0.992
Oc1ccc(Cl)cc1Cc1cc(Cl)ccc1O [Dichlorophen]; 0.919
CCC(C)(c1ccc(O)cc1)c1ccc(O)cc1 [Bisphenol B]; 0.977
C=CCN1CC[C@]23c4c5ccc(O)c4O[C@H]2C(=O)CC[C@@]3(O)[C@H]1C5 [Naloxone hydrochloride]; 1.03
CC1(C)[C@H](C(=O)O[C@H](C#N)c2cccc(Oc3ccccc3)c2)[C@@H]1C=C(Br)Br; 0.998
CN(C)[C@@H]1C(=O)C(C(N)=O)=C(O)[C@@]2(O)C(=O)C3=C(O)c4c(O)cccc4[C@@](C)(O)[C@H]3C[C@@H]12 [Tetracycline hydrochloride]; 0.0623
O=C1C=CC(=O)C=C1 [1,4-Benzoquinone]; 0.844
N#Cc1sc2c(=O)c3ccccc3c(=O)c=2sc1C#N; 0.963
O=[N+]([O-])c1ccc2ccc3cccc4ccc1c2c34 [1-Nitropyrene]; 1
